Test system: biotinyl-Met-oxazolone
Experiment: self-aminoacylation, catalytic enhancement (BMO) (fold over background); higher = more active; k-Seq, kA / k0A0; sequences stand for … in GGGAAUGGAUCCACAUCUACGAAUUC…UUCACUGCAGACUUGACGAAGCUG
This sample holds only a part of the variants without activity.
Form field: self-aminoacylation (one value per entry).
Give the figure by itself; no unit, no explanation.

>>> number("AUUCACCUGUGUCAUCGGGUG [Fam2.2 aminoacylation ribozyme variant]")
10.8
>>> number("CCCCACUUCAAGCGAUCGGUC [Fam1B.1 aminoacylation ribozyme variant]")
2.53
>>> number("CCAGACUCCAAGCAAUCGGUC [Fam1B.1 aminoacylation ribozyme variant]")
1.17
>>> number("AUAACCUUGGUCAUCGAGUGA [Fam2.1 aminoacylation ribozyme variant]")
5.95
>>> number("AUUCACCCAGGUUAUCGGGUG [Fam2.2 aminoacylation ribozyme variant]")
4.79

Ask | Which self-aminoacylation is reported with biotinyl-Met-oxazolone for this entry: AUUACCAUGGUCAUCGAGUGC [Fam2.1 aminoacylation ribozyme variant] ?
Reply | 1.38

Ask | Which self-aminoacylation is reported with biotinyl-Met-oxazolone for this entry: AUGUUUGCUAAUAGUCGCUAG [Fam3.1 aminoacylation ribozyme variant] ?
Reply | 1.06

Ask | Which self-aminoacylation is reported with biotinyl-Met-oxazolone for this entry: AUUCACCUAGGUCAUGGUGUG [Fam2.2 aminoacylation ribozyme variant] ?
Reply | 0.846

Ask | Which self-aminoacylation is reported with biotinyl-Met-oxazolone for this entry: CCACACUUUAAGAAAUCGGUC [Fam1B.1 aminoacylation ribozyme variant] ?
Reply | 0.607

Ask | Which self-aminoacylation is reported with biotinyl-Met-oxazolone for this entry: AUUCAUCUAUGUCAUCGGGUG [Fam2.2 aminoacylation ribozyme variant] ?
Reply | 6.63

Ask | Which self-aminoacylation is reported with biotinyl-Met-oxazolone for this entry: AAGUAUUCUAAUAGUCGCAAG [Fam3.1 aminoacylation ribozyme variant] ?
Reply | 1.58

Ask | Which self-aminoacylation is reported with biotinyl-Met-oxazolone for this entry: CUAUUUCAAACCAUCGGUCUG [Fam1A.1 aminoacylation ribozyme variant] ?
Reply | 1.09

Ask | Which self-aminoacylation is reported with biotinyl-Met-oxazolone for this entry: AAGGUUGCUAAUUGUCGCAAG [Fam3.1 aminoacylation ribozyme variant] ?
Reply | 1.36

Ask | Which self-aminoacylation is reported with biotinyl-Met-oxazolone for this entry: AACUUUGCUAAUAGUCGGAAG [Fam3.1 aminoacylation ribozyme variant] ?
Reply | 1.38

Ask | Which self-aminoacylation is reported with biotinyl-Met-oxazolone for this entry: CCACACUUCAAGCAAGCGGGC [Fam1B.1 aminoacylation ribozyme variant] ?
Reply | 2.41

Ask | Which self-aminoacylation is reported with biotinyl-Met-oxazolone for this entry: CCACAGUUCAAGCAAUAGGUC [Fam1B.1 aminoacylation ribozyme variant] ?
Reply | 0.783

Ask | Which self-aminoacylation is reported with biotinyl-Met-oxazolone for this entry: AAUUUUGCUAAUCGUCGCAAG [Fam3.1 aminoacylation ribozyme variant] ?
Reply | 1.53

Ask | Which self-aminoacylation is reported with biotinyl-Met-oxazolone for this entry: CCACUCUUCAAGAAAUCGGUC [Fam1B.1 aminoacylation ribozyme variant] ?
Reply | 0.91

----------
Form field: self-aminoacylation (one value per entry).
Test system: biotinyl-Leu-oxazolone
Test: self-aminoacylation, catalytic enhancement (BLO) (fold over background); higher = more active; k-Seq, kA / k0A0; sequences stand for … in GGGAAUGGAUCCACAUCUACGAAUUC…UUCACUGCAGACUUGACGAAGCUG
Variants at the floor of the assay were thinned out.

>>> result("AUUCACCUAGGUCAUCGGGCC [Fam2.2 aminoacylation ribozyme variant]")
4.1
>>> result("CCACAAUUCAAGCAUUCGGUC [Fam1B.1 aminoacylation ribozyme variant]")
1.94
>>> result("CCACACUUCGGGCAAUCGGUC [Fam1B.1 aminoacylation ribozyme variant]")
2.48

Ask | Query: self-aminoacylation; subject: AUAAACCUAGGUCAUCGGGUG [Fam2.2 aminoacylation ribozyme variant]
Reply | 4.39

Ask | Query: self-aminoacylation; subject: AUUCCCCUGGUCAUCGGGUGA [Fam2.1 aminoacylation ribozyme variant]
Reply | 14.4

Ask | Query: self-aminoacylation; subject: AUAACCUUGGUCAUCGAGUGA [Fam2.1 aminoacylation ribozyme variant]
Reply | 6.06
